This document collects Ki values reported for Glutamate receptor ionotropic, kainate 1 (Rattus norvegicus, UniProt P22756).

- CC(C)[C@H]1CN[C@H](C(=O)O)[C@H]1CC(=O)O [dihydrokainic acid]: 6 µM
- N[C@H](C(=O)O)[C@H](O)C(=O)O (racemic): > 10 µM
- N[C@H](C(=O)O)[C@H](OC(=O)c1ccccc1)C(=O)O (racemic): > 10 µM
- O=C(O)[C@H]1CN[C@H](C(=O)O)C1: > 10 µM

Alright, here's another compound for you.
For the compound N[C@H](C(=O)O)[C@H](OCc1ccccc1)C(=O)O , what Ki is on record?
> 10 µM
